Numbers sourced from paper PMC3731570.

# assay remarks: Stability measurement under UV light
# Type: physicochemical
# details: water exposed to UV light (8 W)
measurement kind: half-life at 100 μM (min)
Note: unit min is implicit; provide only the numeric part.

Task: Find the recorded half-life at 100 μM belonging to CC1=CC(=O)CC(C)(C)[C@@]1(O)/C=C/C(C)=C\C(=O)O [ABA, Abscisic acid] and report it.
Result: 24
